Test system: 786-0 renal
Assay: NCI-60 one-dose screen, 48 h (100 = growth as untreated, 0 = no growth, -100 = all killed)
Conditions: 10 µM
Description: Cells are grown in 96 well plates and exposed to the test compound for 48 hours. Compounds are tested at a single concentration, which is 10^-5 M for most compounds. The reported endpoint is percent growth (GI% or GIPRCNT), where numbers from 0 - 100% represent growth inhibition, and numbers from -100% - 0 represent cell death. For example, a value of 40 represents 60% growth inhibition. A value of 0 means no net growth occurred over the course of the experiment. […]
Compounds without any hit were thinned out: in the full panel of roughly 83,000, 20% have a hit.
READOUT: growth (%)
All answers are understood in %, so give the number only.

Worked set:
[Cl][Sn]([c]1ccccc1)([c]1ccccc1)[c]1ccccc1    -93.4
C[C@]12CC[C@H]3[C@@H](CCC4=CC(=O)CC[C@@H]43)[C@@H]1CC[C@@H]2OC(=O)N(CCCl)N=O    17.9
C[C@@H]1C[C@@H]([C@H](O)CC2CC(=O)NC(=O)C2)C(=O)[C@@H](C)C1    0.349

Please turn your attention to the following entry.
Q) Value wanted: growth (786-0 renal) of entry CC(Cc1ccc2c(c1)OCO2)NN (centres undefined)
A) 88.2

====

Test system: SK-OV-3 ovarian
Experiment: NCI-60 one-dose screen, 48 h (100 = growth as untreated, 0 = no growth, -100 = all killed)
Conditions: 10 µM
Compounds without any hit were thinned out: in the full panel of roughly 83,000, 20% have a hit.
Reported growth values follow for various molecules
All answers are understood in %, so give the number only.

S=C=NCCc1ccccc1    122

Q) Value wanted: growth (SK-OV-3 ovarian) of entry COc1ccccc1/C=C/[N+](=O)[O-]
A) 113

Q) Repeat with C#CC1(O)CCC(C(C)(C)C)CC1 (stereo not drawn)
A) 119

====

System: A498 renal
Assay: NCI-60 one-dose screen, 48 h (100 = growth as untreated, 0 = no growth, -100 = all killed)
Conditions: 10 µM
About 83,000 compounds went through this panel and 20% of them were active in at least one assay; those are over-represented in the sample as a whole. Activity calls are given as the source filed them. How the source made its calls: active means growth percent below 10; inactive means the rest.
Reported growth values follow for various compounds

Worked set:
CC(C)(C)OOC(=O)/C=C\C(=O)OOC(C)(C)C    109% (inactive)
O=[N+]([O-])c1ccc(N2CCOCC2)c2c1no[n+]2[O-]    -14.1% (active)
O=[N+]([O-])c1ccc(Br)c([N+](=O)[O-])c1    98.3% (inactive)
CCOP(=O)(OCC)C(O)c1ccccc1Cl (centres undefined)    103% (inactive)
C[C@]12CC[C@H]3[C@@H](CCC4=CC(=O)CC[C@@H]43)[C@@H]1CC[C@@H]2OC(=O)N(CCCl)N=O    58% (inactive)
O=[P+](O)c1ccccc1    104% (inactive)

Q) Value wanted: growth (A498 renal) of entry COc1ccc(/C=C(\C)[N+](=O)[O-])cc1OC
A) 111% (inactive)

Q) Repeat with [Cl][Hg][c]1ccc2ccccc2c1
A) -9.18% (active)

Q) Repeat with CCOP(=O)(OCC)/C(C#N)=C/c1ccc(Br)cc1
A) 121% (inactive)

====

Test system: LOX IMVI melanoma
Test: NCI-60 one-dose screen, 48 h (100 = growth as untreated, 0 = no growth, -100 = all killed)
Conditions: 10 µM
Protocol: Growth inhibition of the LOX IMVI human tumor cell line is measured as a screen for anti-cancer activity. Cells are grown in 96 well plates and exposed to the test compound for 48 hours. Compounds are tested at a single concentration, which is 10^-5 M for most compounds. The reported endpoint is percent growth (GI% or GIPRCNT), where numbers from 0 - 100% represent growth inhibition, and numbers from -100% - 0 represent cell death. For example, a value of 40 represents 60% growth inhibition. […]
This is part of a sample that, as a whole, favours compounds with a hit. Of some 83,000 tested, about 20% had one in any assay.
Reported growth values follow for various compounds
All answers are understood in %, so give the number only.

C#CC1(O)CCC(C(C)(C)C)CC1 (stereo not drawn)    110
C[CH2][Hg][S]c1ccccc1C(=O)O    -54.9

Please turn your attention to the following entry.
Q) Given the entry O=[N+]([O-])/C=C\c1ccc2c(c1)OCO2 , report its measured growth.
A) 18.9

====

Tested on: COLO 205 colon
Test: NCI-60 one-dose screen, 48 h (100 = growth as untreated, 0 = no growth, -100 = all killed)
Conditions: 10 µM
The panel holds about 83,000 compounds, 20% with a hit somewhere; the sample as a whole holds those more often.
READOUT: growth (%)
All answers are understood in %, so give the number only.

Worked set:
O=S(=O)(F)c1ccc(Cl)cc1    107
ClCc1ccc2ccccc2n1    128
[Cl][Hg][c]1ccc2ccccc2c1    -87.4

Please turn your attention to the following entry.
Q) Given the entry COc1cc([N+](=O)[O-])c2ncccc2c1[N+](=O)[O-] , report its measured growth.
A) 86.1

====

System: IGROV1 ovarian
Assay: NCI-60 one-dose screen, 48 h (100 = growth as untreated, 0 = no growth, -100 = all killed)
Details: 10 µM
The panel holds about 83,000 compounds, 20% with a hit somewhere; the sample as a whole holds those more often.
READOUT: growth (%)
All answers are understood in %, so give the number only.

COc1cc2c(c(OC)c1OC)-c1ccc(O)c(=O)cc1[C@@H](NC(C)=O)CC2    51.9
Oc1c(Cl)cc(Cl)c2ccccc12.[Cu+2]    74.8

Please turn your attention to the following entry.
Q) Given the entry CC(Cc1ccc2c(c1)OCO2)NN (stereo not drawn) , report its measured growth.
A) 100

====

Tested on: HL-60(TB) leukemia
Assay: NCI-60 one-dose screen, 48 h
Conditions: 10 µM
About 83,000 compounds went through this panel and 20% of them were active in at least one assay; those are over-represented in the sample as a whole. Activity calls are given as the source filed them. The calls were made as follows: active = growth percent below 10; inactive = the rest.
Pick one and only one: Y for active, N for inactive

Consider the worked cases shown below.
COc1ccc(/C=C(\C)[N+](=O)[O-])cc1OC    Y
O=C(CBr)Nc1ccccc1    N
CC1CCC2(OC1)OC1C(O)C3C4CCC5CC(OC6OC(CO)C(OC7OC(CO)C(O)C(OC8OCC(O)C(O)C8O)C7OC7OC(CO)C(O)C(OC8OC(CO)C(O)C(O)C8O)C7O)C(O)C6O)C(O)CC5(C)C4CCC3(C)C1C2C (configuration not stated)    Y
O=[N+]([O-])c1cc[n+]([O-])c2ccccc12    Y
O=[N+]([O-])/C=C/c1ccc(Cl)cc1[N+](=O)[O-]    N

Q) Each compound tested received a call. Report the one for COc1cc([N+](=O)[O-])c2ncccc2c1[N+](=O)[O-] .
A) N

Q) Repeat with Cc1cc(C(C)(C)c2ccc(O)c(C)c2)ccc1O
A) N

====

Test system: SK-MEL-28 melanoma
Assay: NCI-60 one-dose screen, 48 h
Details: 10 µM
Compounds without any hit were thinned out: in the full panel of roughly 83,000, 20% have a hit. Activity calls are given as the source filed them. Rule for the calls: active = growth percent below 10; inactive = the rest.
Pick one and only one: class 1 for active, class 0 for inactive

Q) Each molecule tested received a call. Report the one for CC(=O)[O][Hg][c]1c(C)c(C)cc(C)c1C .
A) class 1

Q) Repeat with NC(=O)c1cc([N+](=O)[O-])c(Cl)c([N+](=O)[O-])c1Cl
A) class 0

Q) Repeat with CN(C)CC1(N)C(=O)NC(=O)NC1=O
A) class 0

Q) Repeat with O=C(O)c1cc(Cc2ccc(O)c(C(=O)O)c2)ccc1O (tested in a mixture with another compound)
A) class 0

Q) Repeat with N#CCc1ccccc1
A) class 0

====

Tested on: OVCAR-4 ovarian
Experiment: NCI-60 one-dose screen, 48 h
Settings: 10 µM
Compounds without any hit were thinned out: in the full panel of roughly 83,000, 20% have a hit. Active and inactive are the calls of the source. The calls were made as follows: active = growth percent below 10; inactive = the rest.
Pick one and only one: Yes (active), No (inactive)

Oc1c(Cl)cc(Cl)c2ccccc12.[Cu+2]    No
Cc1cc(C)c(C[N+](C)(C)C)c(C)c1C    Yes
CCCCCCCC[N+]12CN3CN(CN(C3)C1)C2    No

Q) Each compound tested received a call. Report the one for NC(=O)c1cc([N+](=O)[O-])c(Cl)c([N+](=O)[O-])c1 .
A) No

====

Reported growth values follow for various compounds
System: RXF 393 renal
Test: NCI-60 one-dose screen, 48 h (100 = growth as untreated, 0 = no growth, -100 = all killed)
Details: 10 µM
About 83,000 compounds went through this panel and 20% of them were active in at least one assay; those are over-represented in the sample as a whole.
All answers are understood in %, so give the number only.

Worked set:
Cc1ccc(NC(=O)CBr)cc1    102
O=[N+]([O-])/C=C/c1ccc([N+](=O)[O-])cc1    101
[Cl][Hg][c]1ccc2ccccc2c1    -97
C#CC1(O)CCC(C(C)(C)C)CC1 (stereo not given)    115

Please turn your attention to the following entry.
Q) Value wanted: growth (RXF 393 renal) of entry CCCCCCCC[N+]12CN3CN(CN(C3)C1)C2
A) 105
